B1: HDV Ribozyme (parent)
chain: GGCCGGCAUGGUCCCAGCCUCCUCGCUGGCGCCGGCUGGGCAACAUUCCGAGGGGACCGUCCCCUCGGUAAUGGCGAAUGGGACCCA

# Variants of: B1
# experimental.protocol: self-cleavage, relative activity (ratio to wild type); higher = more cleavage; co-transcriptional
readout.kind: self-cleavage
// keep it numeric: no unit symbol after the value

Example entries begin here.
{"variant.label": "A45C A87U", "self-cleavage": 0.531}
{"variant.label": "G29U A45G", "self-cleavage": 0.0923}
{"variant.label": "C7U U46C", "self-cleavage": 0.447}
{"variant.label": "G55C G74C", "self-cleavage": 0.297}
{"variant.label": "A8G U69C", "self-cleavage": 1.16}

Query: What value of self-cleavage has been recorded for this entry: G54U C63G
Reply: 0.749
